target: Recombinant human IDO1 (rhIDO1) (Homo sapiens (Human), UniProt P14902); assay: Enzymatic assay for IDO1 activity; conditions: read-out: Isolated IDO1 Enayme Assay IC50
Sequence (P14902 whole entry): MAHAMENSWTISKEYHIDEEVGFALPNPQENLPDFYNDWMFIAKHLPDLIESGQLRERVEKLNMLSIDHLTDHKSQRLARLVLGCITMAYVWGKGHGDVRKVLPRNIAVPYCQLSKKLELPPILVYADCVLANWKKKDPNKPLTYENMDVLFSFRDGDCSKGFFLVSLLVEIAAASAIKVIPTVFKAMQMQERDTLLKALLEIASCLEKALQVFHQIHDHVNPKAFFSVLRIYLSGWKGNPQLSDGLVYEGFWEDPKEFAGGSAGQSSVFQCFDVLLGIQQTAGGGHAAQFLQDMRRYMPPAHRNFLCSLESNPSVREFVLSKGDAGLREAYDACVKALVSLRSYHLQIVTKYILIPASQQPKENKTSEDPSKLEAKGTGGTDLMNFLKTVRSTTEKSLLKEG
pIC50: −log10 of the molar value.
Parameter: pIC50. Scope: all listed entries.

*Q* // map `Cc1cc(Cl)nc2onc(N)c12` to recorded pIC50 (system: Recombinant human IDO1 (rhIDO1) (Homo sapiens (Human), UniProt P14902))
*A* > 6.00

*Q* Param readout= pIC50; system= Recombinant human IDO1 (rhIDO1) (Homo sapiens (Human), UniProt P14902); entry= Nc1noc2ncc(-c3ccccc3)cc12 [Compound 24, 5-Phenylisoxazolo[5,4-b]pyridin-3-amine] ; returns value.
*A* < 4.00

*Q* Tell me reported pIC50 for `Nc1noc2nc(Cl)c(F)cc12` , tested with Recombinant human IDO1 (rhIDO1) (Homo sapiens (Human), UniProt P14902).
*A* > 6.00

*Q* Request - read-out pIC50 | tested on Recombinant human IDO1 (rhIDO1) (Homo sapiens (Human), UniProt P14902) | compound `Nc1noc2nc(C(F)(F)F)ccc12`
*A* > 6.00

*Q* Lab request: please report pIC50 under test system Recombinant human IDO1 (rhIDO1) (Homo sapiens (Human), UniProt P14902) for Nc1noc2nc(-c3ccccc3)ccc12 [Compound 15, 6-Phenylisoxazolo[5,4-b]pyridin-3-amine]
*A* < 4.00

----------
Entries and their pIC50 values follow.
target: human TDO (GL261 cells transfected to over-express full length human TDO) (Homo sapiens (Human), UniProt P48775); test: Cell-based assay for TDO inhibition; settings: 24 h; read-out: Cellular TDO IC50
Sequence (P48775 whole entry): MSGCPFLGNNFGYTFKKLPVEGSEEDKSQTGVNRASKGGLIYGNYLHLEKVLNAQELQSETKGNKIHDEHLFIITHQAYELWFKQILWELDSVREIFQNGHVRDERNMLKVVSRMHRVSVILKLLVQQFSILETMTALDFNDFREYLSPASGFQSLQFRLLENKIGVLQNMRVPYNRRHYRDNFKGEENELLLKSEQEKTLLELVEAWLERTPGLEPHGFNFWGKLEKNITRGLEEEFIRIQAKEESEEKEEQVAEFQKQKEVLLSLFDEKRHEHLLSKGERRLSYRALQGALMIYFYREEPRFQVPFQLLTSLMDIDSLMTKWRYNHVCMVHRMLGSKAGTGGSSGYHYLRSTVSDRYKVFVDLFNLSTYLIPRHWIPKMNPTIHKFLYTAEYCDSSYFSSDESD
pIC50: −log10 of the molar value.

These recorded examples may help you get a feel for the data.
> print(dat)
                                   compound  readout.name        result
1          Cc1cc2c(N)noc2nc1C [Compound 45]         pIC50  5.00 to 6.00
2  Nc1noc2ncc(Cl)cc12 [Compound 8, 5-Chloroisoxazolo[5,4-b]pyridin-3-amine]         pIC50        > 6.00

*Q* Quick one: pIC50 for Nc1noc2nc(Cl)c(Cl)cc12 [Compound 67] ?
*A* > 6.00

*Q* # query: pIC50 of entry Nc1noc2ncc(-c3ccccc3)cc12 [Compound 24, 5-Phenylisoxazolo[5,4-b]pyridin-3-amine]
*A* 5.00 to 6.00

*Q* // returns reported pIC50 for input Cc1nc2onc(N)c2c(C)c1Cl [Compound 3]
*A* 4.00 to 5.00

*Q* Please give the measured pIC50 for this compound: Nc1noc2ncc(Br)cc12 [Compound 6, 5-Bromoisoxazolo[5,4-b]pyridin-3-amine]
*A* > 6.00

----------
biological target: human TDO (GL261 cells transfected to over-express full length human TDO) (Homo sapiens (Human), UniProt P48775); test: Cell-based assay for TDO inhibition; settings: 24 h; read-out: Cellular TDO IC50
pIC50: −log10 of the molar value.
pIC50 reference

// worked examples, pIC50 included
> print(dat)
                                   compound  readout.name        result
1  Nc1noc2nc3ccccc3cc12 [Compound 9, Isoxazolo[5,4-b]quinolin-3-amine]         pIC50  5.00 to 6.00
2  Cc1cnc2onc(N)c2c1 [Compound 44, 5-Methylisoxazolo[5,4-b]pyridin-3-amine]         pIC50        > 6.00
3  COc1ccc2c(N)noc2n1 [Compound 41, 6-Methoxyisoxazolo[5,4-b]pyridin-3-amine]         pIC50  4.00 to 5.00
4                  Nc1noc2nc(-c3cccs3)ccc12         pIC50  4.00 to 5.00
5  Nc1noc2ncncc12 [Compound 12, Isoxazolo[5,4-d]pyrimidin-3-amine]         pIC50  5.00 to 6.00

*Q* Look up pIC50: `Cc1cc(Cl)nc2onc(N)c12`
*A* 5.00 to 6.00

*Q* Name the reported pIC50 value associated with the compound Nc1noc2ncc(I)cc12 [Compound 16, 5-Iodoisoxazolo[5,4-b]pyridin-3-amine]
*A* > 6.00

*Q* Given the entry `Cc1cc(C)c2c(N)noc2n1` , report its measured pIC50.
*A* 4.00 to 5.00

*Q* # input compound: `Nc1noc2nc(Oc3ccccc3Cl)ccc12` ; wanted: its pIC50
*A* 5.00 to 6.00

*Q* Find the recorded pIC50 belonging to Nc1noc2nc(-c3ccccc3)ccc12 [Compound 15, 6-Phenylisoxazolo[5,4-b]pyridin-3-amine] and report it.
*A* 4.00 to 5.00

*Q* Fill blank: measured pIC50 of the compound `COc1cccc(Nc2ccc3c(N)noc3n2)c1` is ____.
*A* 4.00 to 5.00

*Q* What pIC50 value was documented for this compound, `Nc1noc2nc3c(cc12)CCCC3` ?
*A* 4.00 to 5.00

*Q* Suppose we examine the compound `Cc1nc2onc(N)c2c(C)c1C` ; what pIC50 value has been reported?
*A* 4.00 to 5.00

*Q* Find the recorded pIC50 belonging to `Cc1nc2onc(N)c2c(C)c1Br` and report it.
*A* 4.00 to 5.00

Provenance of the data: patent US20250186410A1
